Biological target: T1, (His)6-14-3-3ε (UniProt P62258 1-255)
T1 construct: 14-3-3 protein epsilon; also called His-tagged protein; source: bought: Novus Biologicals
T1 sequence (looked up): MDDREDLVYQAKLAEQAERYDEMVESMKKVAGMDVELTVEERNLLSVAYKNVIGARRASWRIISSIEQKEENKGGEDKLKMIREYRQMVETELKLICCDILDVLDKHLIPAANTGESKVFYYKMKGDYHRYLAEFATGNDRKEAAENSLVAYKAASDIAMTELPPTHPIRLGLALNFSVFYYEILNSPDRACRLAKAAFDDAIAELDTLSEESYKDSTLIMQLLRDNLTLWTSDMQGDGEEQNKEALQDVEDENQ
Test: SPR; Biacore 8K; 100 nM His6-14-3-3ε immobilized on NiCl2-activated NTA chip; peptides injected at 0-500 μM (depending on the peptide); 20 mM TRIS, 150 mM NaCl, 50 μM EDTA, 0.005% Tween 20, pH 7.4; steady-state binding model
Details: both partners purified
[ ]: non-standard residue; d: D form. pS = N[C@@H](COP(=O)(O)O)C(=O)O
measured_parameter: pKd
// field semantics: pKd = negative decimal log of concentration (mol/L)

binder	pKd
Ac-QRQK[pS]APAR-NH2 (SMILES CC(=O)N[C@@H](CCC(N)=O)C(=O)N[C@@H](CCCNC(=N)N)C(=O)N[C@@H](CCC(N)=O)C(=O)N[C@@H](CCCCN)C(=O)N[C@@H](COP(=O)(O)O)C(=O)N[C@@H](C)C(=O)N1CCC[C@H]1C(=O)N[C@@H](C)C(=O)N[C@@H](CCCNC(=N)N)C(N)=O, CDC25A residues 174-182, with phosphoserine at 178 and Asn177 replaced by Lys; source: synthetic peptide (Biosynth International Inc.), >95% purity) [[Lys^177]pS(174–182)]	5.28

stdin: Return the recorded pKd value; entry: Ac-TQRQN[pS]APARMLSS-NH2 (SMILES CSCC[C@H](NC(=O)[C@H](CCCNC(=N)N)NC(=O)[C@H](C)NC(=O)[C@@H]1CCCN1C(=O)[C@H](C)NC(=O)[C@H](COP(=O)(O)O)NC(=O)[C@H](CC(N)=O)NC(=O)[C@H](CCC(N)=O)NC(=O)[C@H](CCCNC(=N)N)NC(=O)[C@H](CCC(N)=O)NC(=O)[C@@H](NC(C)=O)[C@@H](C)O)C(=O)N[C@@H](CC(C)C)C(=O)N[C@@H](CO)C(=O)N[C@@H](CO)C(N)=O, CDC25A residues 173-186, with phosphoserine at 178; also called parent pS peptide; source: synthetic peptide (Biosynth International Inc.), >95% purity) [pS peptide, CDC25A residues 173–186]
stdout: 6.66

stdin: Return the recorded pKd value; entry: Ac-QRFN[pS]APAR-NH2 (SMILES CC(=O)N[C@@H](CCC(N)=O)C(=O)N[C@@H](CCCNC(=N)N)C(=O)N[C@@H](Cc1ccccc1)C(=O)N[C@@H](CC(N)=O)C(=O)N[C@@H](COP(=O)(O)O)C(=O)N[C@@H](C)C(=O)N1CCC[C@H]1C(=O)N[C@@H](C)C(=O)N[C@@H](CCCNC(=N)N)C(N)=O, CDC25A residues 174-182, with phosphoserine at 178 and Gln176 replaced by Phe; source: synthetic peptide (Biosynth International Inc.), >95% purity) [[Phe^176]pS(174–182)]
stdout: 6.44

stdin: Return the recorded pKd value; entry: Ac-QRQN[pS]YPAR-NH2 (SMILES CC(=O)N[C@@H](CCC(N)=O)C(=O)N[C@@H](CCCNC(=N)N)C(=O)N[C@@H](CCC(N)=O)C(=O)N[C@@H](CC(N)=O)C(=O)N[C@@H](COP(=O)(O)O)C(=O)N[C@@H](Cc1ccc(O)cc1)C(=O)N1CCC[C@H]1C(=O)N[C@@H](C)C(=O)N[C@@H](CCCNC(=N)N)C(N)=O, CDC25A residues 174-182, with phosphoserine at 178 and Ala179 replaced by Tyr; source: synthetic peptide (Biosynth International Inc.), >95% purity) [[Tyr^179]pS(174–182)]
stdout: 3.94

stdin: Return the recorded pKd value; entry: Ac-QRQN[pS]APAR-NH2 (SMILES CC(=O)N[C@@H](CCC(N)=O)C(=O)N[C@@H](CCCNC(=N)N)C(=O)N[C@@H](CCC(N)=O)C(=O)N[C@@H](CC(N)=O)C(=O)N[C@@H](COP(=O)(O)O)C(=O)N[C@@H](C)C(=O)N1CCC[C@H]1C(=O)N[C@@H](C)C(=O)N[C@@H](CCCNC(=N)N)C(N)=O, CDC25A residues 174-182, with phosphoserine at 178; also called Ac-CDC25A(174–182)-NH2; source: synthetic peptide (Biosynth International Inc.), >95% purity) [pS(174–182)]
stdout: 5.04

stdin: Return the recorded pKd value; entry: Ac-QRQN[pS]FPAR-NH2 (SMILES CC(=O)N[C@@H](CCC(N)=O)C(=O)N[C@@H](CCCNC(=N)N)C(=O)N[C@@H](CCC(N)=O)C(=O)N[C@@H](CC(N)=O)C(=O)N[C@@H](COP(=O)(O)O)C(=O)N[C@@H](Cc1ccccc1)C(=O)N1CCC[C@H]1C(=O)N[C@@H](C)C(=O)N[C@@H](CCCNC(=N)N)C(N)=O, CDC25A residues 174-182, with phosphoserine at 178 and Ala179 replaced by Phe; source: synthetic peptide (Biosynth International Inc.), >95% purity) [[Phe^179]pS(174–182)]
stdout: 4.23

stdin: Return the recorded pKd value; entry: Ac-QRYN[pS]APAR-NH2 (SMILES CC(=O)N[C@@H](CCC(N)=O)C(=O)N[C@@H](CCCNC(=N)N)C(=O)N[C@@H](Cc1ccc(O)cc1)C(=O)N[C@@H](CC(N)=O)C(=O)N[C@@H](COP(=O)(O)O)C(=O)N[C@@H](C)C(=O)N1CCC[C@H]1C(=O)N[C@@H](C)C(=O)N[C@@H](CCCNC(=N)N)C(N)=O, CDC25A residues 174-182, with phosphoserine at 178 and Gln176 replaced by Tyr; source: synthetic peptide (Biosynth International Inc.), >95% purity) [[Tyr^176]pS(174–182)]
stdout: 6.39
